# assayOverview: solvent given as SMILES
# testSettings: in CN(C)C=O
experimentalReadout: log10 of fluorescence lifetime (log10 of the value in ns)
Scale: log10; quantity: fluorescence lifetime; unit before log: ns

[[record]]
molecule = "COC(=O)C(Cc1ccc2oc(-c3ccc(N(C)C)cc3)nc2c1)NC(=O)OC(C)(C)C (stereo not drawn)"
assayresult = 0.11

[[record]]
molecule = "N#CC(C#N)=C(/C=C/c1cc2c3c(c1)CCCN3CCC2)c1ccc2c3c(cccc13)CC2"
assayresult = 0.43

[[record]]
molecule = "N#Cc1ccc(C#Cc2ccc(C#Cc3ccc(C#Cc4ccccc4C#N)cc3C#N)cc2C#N)cc1"
assayresult = 0.21

[[record]]
molecule = "COc1cc(N(c2ccccc2)c2ccccc2)ccc1C=C(C#N)C#N"
assayresult = -1.52

[[record]]
molecule = "COc1ccc(C#Cc2ccc(C#Cc3ccc(C#Cc4ccccc4C#N)cc3C#N)cc2C#N)cc1"
assayresult = 0.14


Quick one: give me log10 of fluorescence lifetime for each item below, same order please.
1. CC(C)(C)c1ccc2c(c1)[nH]c1c3[nH]c4cc(C(C)(C)C)ccc4c3c3nsnc3c21
2. CCCCCCCCCCCCN1C(=O)c2ccc3c4ccc5c6c(ccc(c7ccc(c2c37)C1=O)c64)C(=O)NC5=O
3. CCCCCCCCC1(CCCCCCCC)c2cc(-c3ccc(C#N)cc3)ccc2-c2ccc(-c3ccc(C#N)cc3)cc21
4. CC1=C(C(C)(C)C)C(C)=[N+]2C1=C(C)c1c(C)c(C(C)(C)C)c(C)n1[B-]2(F)F
5. CC(=O)c1ccc2ccc3cccc4ccc1c2c34
6. COc1cc2c(cc1/C=C/C(=C(C#N)C#N)c1ccccc1)c1ccccc1n2C
7. N#Cc1coc2ccccc2c1=O
8. O=C(O)c1ccc2cc3cc(C(=O)O)ccc3cc2c1

[0.36, 0.48, -0.02, 0.67, 0.73, 0.86, 0.25, 1.10]
